- protocol.notes: physchem
- details: pH 6.5, aqueous buffer

- molecule: "CN1C(C(=O)Nc2ccccn2)=C(O)c2ccccc2S1(=O)=O [PRM, Piroxicam]"
  solubility thermodynamic at 48 h (µg/mL): 140
